The reported measurements were obtained from PubChem BioAssay (NCATS).

experiment: Viability qHTS for spleen associated tyrosine kinase inhibitor (SYKi) naive MV4-11 cells (AID 1963823); settings: MV4-11 AML viability, CellTiter-Glo luminescence, 72 h; series mostly up to 45 µM; note: nearly all actives have a fitted effect of over 40% in size
Inconclusive results are not listed. Active and inactive are the calls of the source. Calls come from the whole dose curve; as a rule, active = well fitted cell-killing curve with a large enough effect; inconclusive = small, poorly fitted or top-dose-only effect, or effect the other way; inactive = no such curve, though single readings can be large or run the other way.
The reader will find reported viability (% of control) values listed item by item below.

INSERT INTO measurements (compound, reported) VALUES
  ('CC1(CO)CC[C@]2(C(=O)O[C@@H]3O[C@H](CO)[C@@H](O)[C@H](O)[C@H]3O)CC[C@]3(C)C(=CCC4[C@@]5(C)CC[C@H](O[C@@H]6O[C@H](C(=O)O)[C@@H](O)[C@H](O)[C@H]6O)C(C)(C)C5CC[C@]43C)C2C1 (stereo partly drawn)', '87.4% [at 9.25 µM] (inactive)'),
  ('CC1(C)CC[C@]2(C(=O)O[C@@H]3O[C@H](CO)[C@@H](O)[C@H](O)[C@H]3O)CC[C@]3(C)C(=CCC4[C@@]5(C)CC[C@H](O[C@@H]6O[C@H](C(=O)O)[C@@H](O)[C@H](O)[C@H]6OC6OC(CO)C(O)C(O)C6O)C(C)(C)C5CC[C@]43C)[C@@H]2C1 (stereo partly drawn)', '89.4% [at 9.25 µM] (inactive)');

Attention now turns to another entry.
# lookup: viability (% of control) of C/C=C(\C)C(=O)O[C@H]1[C@H](O)[C@]2(COC(C)=O)[C@H](O)C[C@]3(C)C(=CCC4[C@@]5(C)CC[C@H](O[C@@H]6O[C@H](C(=O)O)[C@@H](O[C@@H]7O[C@H](CO)[C@@H](O)[C@H](O)[C@H]7O)[C@H](O)[C@H]6O[C@@H]6O[C@H](CO)[C@@H](O)[C@H](O)[C@H]6O)[C@](C)(CO)C5CC[C@]43C)[C@@H]2CC1(C)C (stereo partly drawn) 88% [at 9.25 µM] (inactive)

====

assay: Cellular viability qHTS for adrenocortical cancer (ACC) cell line NCI-H295R (AID 1963990); settings: CellTiter-Glo ATP luminescence, 48 h; series mostly up to 46.1 µM; note: nearly all actives have a fitted effect of over 60% in size
Records with an inconclusive call do not appear. Calls of active or inactive are those of the source. Calls come from the whole dose curve; as a rule, active = well fitted cell-killing curve with a large enough effect; inconclusive = small, poorly fitted or top-dose-only effect; inactive = flat fitted curve, though single readings scatter.
Select the correct class. Options are active, inactive and nothing else.

INSERT INTO results (molecule, label_value) VALUES
  ('Cn1c(=O)c2[nH]c(Br)nc2n(C)c1=O', 'inactive'),
  ('C[C@](Cc1c[nH]c2ccccc12)(NC(=O)OC1C2CC3CC(C2)CC1C3)C(=O)NC[C@H](NC(=O)CCC(=O)O)c1ccccc1 (stereo partly drawn)', 'inactive'),
  ('Oc1ccc([C@@H]2Oc3ccc(O)cc3[C@@H]3CCC[C@@H]32)cc1', 'active'),
  ('NC(=O)N[C@@H](CCC(=O)O)C(=O)O', 'inactive'),
  ('Cc1cccc(-c2[nH]c(CNc3ccccc3F)nc2-c2ccc3ncnn3c2)n1', 'inactive');

For this molecule, state the assay outcome: C[C@@H](O)[C@H]1C(=O)N2C(C(=O)O)=C(SCCN=CN)C[C@H]12 inactive

For this molecule, state the assay outcome: Nc1nc2c(ncn2COC(CO)CO)c(=O)[nH]1 inactive

For this molecule, state the assay outcome: CC(C)Oc1ccc2c(=O)c(-c3ccccc3)coc2c1 inactive

For this molecule, state the assay outcome: CC(N)C(=O)OC(C)(C)Cc1ccc(Cl)cc1 (stereo not drawn) inactive

====

target: Cytochrome P450 3A7 (Homo sapiens); test: Cytochrome P450 family 3 subfamily A member 7 (CYP3A7) small molecule antagonists: luciferase biochemical qHTS assay (AID 1963596); conditions: P450-Glo CYP3A7 enzyme luminescence, 1 h; series mostly up to 57.4 µM; note: nearly all actives have a fitted effect of over 40% in size
Inconclusive results are not listed. Calls of active or inactive are those of the source. Calls come from the whole dose curve; as a rule, active = well fitted inhibition curve with a large enough effect; inconclusive = small, poorly fitted or top-dose-only effect; inactive = no such curve, though single readings can be large or run the other way.
Select the correct class. Options are true for active, false for inactive and nothing else.

INSERT INTO measurements (compound, label_value) VALUES
  ('COc1ccc(Sc2ccc(NC(=O)c3ccccc3Cl)cc2C#N)cc1', 'false'),
  ('CC1(C)OC[C@@H]2O[C@@]3(C(=O)O)OC(C)(C)O[C@H]3[C@@H]2O1', 'false'),
  ('O=C(NC(Cc1cc(=O)[nH]c2ccccc12)C(=O)O)c1ccc(Cl)cc1 (stereo unspecified)', 'false'),
  ('CC(=O)N/N=C/c1ccc([N+](=O)[O-])o1', 'false'),
  ('O=C(Nc1cccc(Cl)c1)Nc1ccccc1OCc1cc(=O)n2ccccc2n1', 'false'),
  ('Nc1nc(Cl)nc2c1ncn2[C@@H]1O[C@H](CO)[C@@H](O)[C@@H]1F', 'false'),
  ('CCOc1ccc(CNC(=O)Cn2c(=O)c3cccn3c3ccc(F)cc32)cc1', 'true'),
  ('Nc1cc(C(Cl)=C(Cl)Cl)c(S(N)(=O)=O)cc1S(N)(=O)=O', 'false'),
  ('NC(=O)c1ncn(C2OC(CO)C(O)C2O)n1 (stereo unspecified)', 'false'),
  ('CCc1cnc(N2CCC(c3nc(COc4ccc(-n5cnnn5)cc4)cs3)CC2)nc1', 'false');

For this compound, state the assay outcome: CC(N)C12CC3CC(CC(C3)C1)C2 (stereo unspecified) false

====

Experiment: Viability qHTS for spleen associated tyrosine kinase inhibitor (SYKi) naive MV4-11 cells (AID 1963823); note: nearly all actives have a fitted effect of over 40% in size
Settings: MV4-11 AML viability, CellTiter-Glo luminescence, 72 h; series mostly up to 45 µM
Procedure: Department of Medicine, Hematology/Oncology University Hospital Frankfurt, Germany. Trials have shown promising clinical activity of the selective SYK inhibitor entospletinib in patients with high expressing HOXA9/MEIS1 acute leukemias. […] 7; Detection; Luminescence; ViewLux plate reader (PerkinElmer). […] 1. Quantitative high-throughput screening (qHTS) of small molecule compounds was conducted on naive SYKi MV4-11 cell line. […] 7. Luminescence was measured on a ViewLux plate reader (PerkinElmer).
Records with an inconclusive call do not appear. Activity calls are given as the source filed them. Calls follow the shape of the dose curve; as a rule, active = well fitted cell-killing curve with a large enough effect; inconclusive = small, poorly fitted or top-dose-only effect, or effect the other way; inactive = no such curve, though single readings can be large or run the other way.
Select the correct class. Options are active, inactive and nothing else.

For orientation, consider the following solved cases.
INSERT INTO assay_data (compound, label_value) VALUES
  ('C[C@@H]1O[C@@H](O[C@H]2[C@@H]3C=CO[C@@H](O[C@@H]4O[C@H](CO)[C@@H](O)[C@H](O)[C@H]4O)[C@@H]3[C@@]3(CO)O[C@@H]23)[C@H](O)[C@H](OC(=O)/C=C/c2ccc(O)c(O)c2)[C@H]1O', 'inactive'),
  ('COc1cc(N2CCN(C)CC2)ccc1Nc1ncc2c(n1)N(C)c1ccccc1C(=O)N2C', 'active'),
  ('C=C1C(=O)O[C@@H]2[C@H]1CC(=O)[C@H](C)[C@@](O)(C(=O)/C=C/C)[C@H]2OC(=O)C(C)CC (stereo partly drawn)', 'active'),
  ('Nc1c(NC/C=C\COc2cc(CN3CCCCC3)ccn2)c(=O)c1=O', 'inactive'),
  ('Cc1cn(CCN2CCN(c3ccccc3-c3cc(C#N)cc(C(=O)NCCCN4CCCC4)c3)CC2)c2ccccc12', 'active');

For this compound, state the assay outcome: O=C1c2cccc(O)c2C(=O)c2c(O)cccc21 inactive

For this compound, state the assay outcome: CC(C)(C)Cn1c(N)nc2ccc(-c3[nH]c(C(C)(C)C)nc3-c3ccc(F)cc3)nc21 active

For this compound, state the assay outcome: CN(C)CCC=C1c2ccccc2C=Cc2ccccc21 active

====

assay: Viability qHTS for spleen associated tyrosine kinase inhibitor (SYKi) drug resistant MV4-11 cells (AID 1963824); settings: SYKi-resistant MV4-11 viability, CellTiter-Glo, 72 h; series mostly up to 45 µM; note: nearly all actives have a fitted effect of over 35% in size; note: potency is the fitted concentration of half-maximal effect
Inconclusive results are not listed. Active and inactive are the calls of the source. The call rests on the fitted dose curve; in most records, active means well fitted cell-killing curve with a large enough effect; inconclusive means small, poorly fitted or top-dose-only effect, or effect the other way; inactive means no such curve, though single readings can be large or run the other way.
measurement-label: Potency

Examples with answers:
INSERT INTO results (compound, reported) VALUES
  ('COc1cc(N2CCC(N3CCN(C)CC3)CC2)ccc1Nc1ncc(Cl)c(-c2c[nH]c3ccccc23)n1', '0.0116 µM (active)'),
  ('C/C(=C(\CCO)SS/C(CCO)=C(\C)N(C=O)Cc1cnc(C)nc1N)N(C=O)Cc1cnc(C)nc1N', 'inactive'),
  ('Cc1ccc(O)cc1', 'inactive'),
  ('CN(C)c1ccc(O)c2c1C[C@H]1C[C@H]3[C@H](N(C)C)C(=O)C(C(N)=O)=C(O)[C@@]3(O)C(=O)C1=C2O', '20.9 µM (active)'),
  ('O=C(/C=C/c1ccc(O)c(O)c1)OC[C@H]1O[C@@H](OC2CCCCC2O)[C@H](O)[C@@H](O)[C@@H]1O (stereo partly specified)', 'inactive');

# lookup: Potency of CC(C)Cn1cnc2c(N)nc3ccccc3c21 inactive

# lookup: Potency of CO[C@H]1/C=C\O[C@@]2(C)Oc3c(C)c(O)c4c(O)c(c5c(nc6cc(C)ccn65)c4c3C2=O)NC(=O)/C(C)=C\C=C/[C@H](C)[C@H](O)[C@@H](C)[C@@H](O)[C@@H](C)[C@H](OC(C)=O)[C@@H]1C 16.4 µM (active)

# lookup: Potency of C[C@H]1O[C@H](O[C@H]2[C@H](O)[C@@H](O)[C@@H](O[C@H]3[C@H](O)[C@@H](O)[C@H](O)O[C@@H]3CO)O[C@@H]2CO)[C@H](O)[C@@H](O)[C@@H]1N[C@H]1C=C(CO)[C@@H](O)[C@H](O)[C@H]1O inactive

# lookup: Potency of CN1N=C(N)c2cn([C@@H]3O[C@H](COP(=O)(O)O)[C@@H](O)[C@@H]3O)c3ncnc1c23 0.0742 µM (active)

# lookup: Potency of COc1ccc(-n2nc(C(N)=O)c3c2C(=O)N(c2ccc(N4CCCCC4=O)cc2)CC3)cc1 inactive

# lookup: Potency of C=C1C(OC2OCC(O)C(O)C2O)CC2C(C)(C)C(O)CCC2(C)C1CC/C(C)=C\CO (stereo unspecified) 7.09 µM (active)

# lookup: Potency of COc1cccc2c1C(=O)c1c(O)c3c(c(O)c1C2=O)C[C@@](O)(C(=O)CO)C[C@@H]3O[C@H]1C[C@H](N)[C@@H](O)[C@H](C)O1 0.0525 µM (active)
